test: viability profiling in MM1S myeloma cells – cell-based, resazurin fluorescence, basal, 24 h, PK04 Diversity Set, profiling panel (AID 1174); settings: higher = more signal, called active from +8 up or from −8 down;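 further: MM1S multiple myeloma cell line; test concentration not given here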
Value Kind: z-score
// no unit, no text: just the number

Some entries whose results are on file:
Compound | z-score
COC(=O)C1=CC(CCCO)=CC(c2cccs2)N(Cc2cccc(OC(F)(F)F)c2)C=C1C(=O)OC (centres undefined) | -1.46
COC(=O)c1c(CC[C@@H](CO)NC(=O)N[C@@H](C)Cn2cc(-c3ccccn3)nn2)oc(C(C)=O)c1C(=O)OC | 0.0168
CCCCC(=C=CC[C@H](O)c1ccc(OCCO)cc1)CCO | -0.149

Attention now turns to another entry.
Exercise: Which value of z-score has been reported for NCCCCCNC(=O)[C@@H]1C[C@@H]2C(=O)N[C@@H](CCCCN)C(=O)N2[C@@H]1c1ccc(O)cc1 in the records?
Key: 0.116

###

experiment: COS7 lysate on small-molecule microarray, probe aHis, 635 nm (AID 1123); conditions: COS7 cell lysate, fluorescence, higher = more signal;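 further: z-score combines 667nm fluorescence intensity with signal-to-noise per printed compound spot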
Decision: composite z-score >= 0.5 yields 1 (yes), all other cases yield 0 (no).

Molecule | Classification
CCCC#C[Si](O[C@H](CC)c1cn([C@H](C)c2ccccc2)nn1)(C(C)C)C(C)C | 0 (no)
CCN(CC)c1ccc(N2CC=CC34O[C@@H]5/C=C\CCCOC(=O)C5[C@H]3C(=O)N(C(C)CO)[C@@H]4C2=O)cc1 (stereo not given in full) | 0 (no)
CCOC(=O)[C@@H]1CCCCN1C(=O)C(=O)OC | 0 (no)
COCCOC(=O)N1C(=O)[C@@]2(c3cc(C#CC4(O)CCCCCC4)ccc31)[C@H](c1ccc(O)cc1)N1[C@H](c3ccccc3)[C@H](c3ccccc3)OC(=O)[C@H]1[C@@H]2C(=O)N1CCN(c2ncccn2)CC1 | 1 (yes)

Now take the following molecule into account.
Exercise: Decide: composite z-score of CCCCC(CC)C(O)C1C=CC2C(=O)N(c3ccccc3)C(=O)C2N1Nc1ccccc1F (stereo not given) >= 0.5?
Key: 1 (yes)

###

test: changes in parasitized red cell lysis, either direction – P. falciparum Indochina, OD700, 3 h, PSAC antagonist project, primary screen (AID 1156); conditions: P. falciparum-infected erythrocytes, osmotic lysis, higher = more signal, called active from +8 up or from −8 down
List of z-score values.
// keep it numeric: no unit symbol after the value

Recorded results for 3 compounds are shown here.
Chemical Structure | z-score
C#Cc1cc2ccccc2oc1=O | 0.898
CC(C)[Si]1(C(C)C)OCc2cc(-c3ccc(-c4ccc(Cl)c(Cl)c4)o3)nc(-c3ccccc3)c21 | 0.6
C=C[C@@H](CO)N(Cc1ccc(OC)cc1)S(=O)(=O)c1ccc(Br)cc1 | -1.21

Exercise: Tell me the measured z-score of COc1ccc(C#Cc2ccc3c(c2)[C@]2(C(=O)N3)[C@H](C(=O)O)[C@H]3C(=O)O[C@H](c4ccccc4)[C@H](c4ccccc4)N3[C@@H]2c2ccc(O)cc2)cc1 , please.
Key: -8.72

Exercise: Form field: reported z-score of CCOC(=O)C[C@H]1[C@H](OC(=O)c2ccccc2-c2ccccc2)[C@@H](NC(=O)c2ccc3ccccc3n2)c2cc(OCCCO)ccc2N1C(=O)Cc1ccc(OC)cc1
Key: -0.0433

Exercise: What value of z-score has been recorded for this entry: C=CCNC(=O)[C@@H]1[C@H]2C(=O)O[C@H](c3ccccc3)[C@H](c3ccccc3)N2[C@H](c2ccccc2OCCO)[C@@]12C(=O)Nc1ccc(C#CCC(C(=O)OC)C(=O)OC)cc12
Key: 0.622

Exercise: So what does the record say about z-score for CC(C)N1C(=O)c2ccccc2[C@@H](C(=O)NCCN2CCOCC2)[C@@H]1c1ccc(CO)cc1 ?
Key: 1.24

###

molecular target: Left-right determination factor 2 (Homo sapiens) (UniProt O00292); assay: small molecules binding LEFTY2 protein – biochemical, small-molecule microarray, 635 nm fluorescence scan, primary screen (AID 1110); conditions: higher = more signal
Sequence (O00292 whole entry, looked up): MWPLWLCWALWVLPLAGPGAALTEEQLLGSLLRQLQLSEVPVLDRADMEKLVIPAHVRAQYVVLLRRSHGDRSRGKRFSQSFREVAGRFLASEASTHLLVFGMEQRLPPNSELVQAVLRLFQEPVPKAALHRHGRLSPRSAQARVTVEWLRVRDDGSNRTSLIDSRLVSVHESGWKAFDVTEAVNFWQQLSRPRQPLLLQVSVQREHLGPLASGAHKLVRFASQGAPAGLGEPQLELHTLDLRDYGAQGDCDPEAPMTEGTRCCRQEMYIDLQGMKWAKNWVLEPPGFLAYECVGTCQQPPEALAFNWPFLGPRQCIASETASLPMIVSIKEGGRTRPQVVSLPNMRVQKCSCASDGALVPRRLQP
Value Kind: composite z-score
Form: value (number only, do not type unit).

Compound | Value Kind | Experimental Value
CC(=O)NCCCC[C@@H]1NC(=O)[C@@H]2C[C@H](C(=O)NCCCCCN)[C@H](c3cccc(OCCO)c3)N2C1=O | composite z-score | 0.736
C=C[C@H]1C(C(=O)OCC)=CC[C@@H](c2ccccc2)N1S(=O)(=O)c1ccc(C)cc1 | composite z-score | 0.0641
CCCCC[C@H]1OC[C@@]23C=C(Br)[C@@H](CC12)[C@@]1(CO1)C3=O (some centres not stated) | composite z-score | 0.058

Exercise: Request the reported composite z-score associated with [N-]=[N+]=Nc1ccccc1C[C@]1(C(=O)N2CCOCC2)COC(c2ccc(OCCCO)cc2)=N1
Key: -0.253

Exercise: Record request: composite z-score value, item Cc1cc(C)c(C(O)C2C=CC3C(=O)N(c4ccccc4)C(=O)C3N2Nc2ccccc2F)c(C)c1 (configuration not stated)
Key: -0.636

Exercise: I have this compound here, Cc1ccc(S[C@]2(C(=O)NCCN3CCOCC3)CC(=O)N(Cc3ccccc3Cl)[C@@H]2c2ccc(CO)cc2I)cc1 , and I need its recorded composite z-score.
Key: -1.45

Exercise: What does the data say about its composite z-score? Entry: COc1ccc(C#Cc2ccc3c(c2)[C@]2(C(=O)N3)[C@H](c3ccc(OCCO)cc3)N3[C@H](c4ccccc4)[C@H](c4ccccc4)OC(=O)[C@H]3[C@@H]2C(=O)NC[C@H](O)c2ccccc2)cc1
Key: 0.428

###

assay: probe aLefty1 binding on compound microarray – biochemical, small-molecule microarray, 635/667 nm fluorescence, primary screen (AID 1153); conditions: higher = more signal;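 further: score merges spot fluorescence with signal-to-noise ratio from the scanned slide images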
# thresholds on composite z-score define classes: zone 1 = under -0.06, zone 2 = from -0.06 up to 0.08, zone 3 = 0.08 and over

Reference set, count: 3
Compound | Classification
CC(C)C(CO)N1C(=O)[C@@H]2C3C(=O)OCCC/C=C\[C@H]3OC23C=CCN(c2ccc4ccccc4c2)C(=O)[C@@H]13 (stereo partly specified) | zone 2
COC(=O)[C@]1(CCS(=O)(=O)c2ccccc2)N=C(c2ccc(OCCCO)cc2)O[C@@H]1c1ccccc1N=[N+]=[N-] | zone 3
CS(=O)(=O)CCOC(=O)C1=CC(CCCO)=CC(c2ccc(CN3CCCC3)cc2)N(Cc2sc3ccccc3c2Cl)C=C1C(=O)OCCS(C)(=O)=O (stereo unspecified) | zone 3

Kindly review the next compound as well.
Exercise: Looking at COCC(=C=CC[C@H](O)c1ccc(CO)o1)CCO , which class would you pick?
Key: zone 1

###

target: Calmodulin-1 (Homo sapiens); test: small molecules binding Ca-loaded calmodulin-1 – biochemical, small-molecule microarray, Cy5-labelled CALM1, plus calcium, artefact control for SMM control-protein annotation, profiling panel (AID 1112); details: Cy5-CALM1 binding fluorescence, higher = more signal;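 further: score merges spot fluorescence with signal to noise from triplicate slides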
Documented composite z-score across a set of molecules
Form field (numeric): enter value without unit.

Use the examples below as a reference point.
Molecule | Experimental Value
Cn1cccc1C(O)C1C=CC2C(=O)N(c3ccccc3)C(=O)C2N1Nc1ccccc1 (stereo not given) | 0.405
CC(C)C(O)C1C=CC2C(=O)N(c3ccccc3)C(=O)C2N1Nc1ccccc1 (stereo not given) | 0.325
Cc1ccc(S[C@]2(C(=O)O)CC(=O)N(C3CCCCC3)[C@@H]2c2ccc(CO)cc2I)cc1 | 0.63
CCOC(=O)C1=C[C@@H](c2ccccc2)N(S(=O)(=O)c2ccc(C)cc2)[C@H]1c1ccc(OC)cc1 | 0.736

Switching to the query record.
Exercise: Identify the measured composite z-score of Cc1ccc(S[C@]2(C(=O)NCc3ccccc3)CC(=O)N(C3CCCCC3)[C@@H]2c2ccc(CO)cc2I)cc1 for Calmodulin-1 (Homo sapiens).
Key: -0.267

###

test: binders from COS7 lysate, DM2A8 probe, primary screen, torsin A project, cell lysate, small-molecule microarray, fluorescence 635/667 (AID 1065); conditions: higher = more signal, COS7 lysate expressing mutant human TOR1A
compounds and their reported composite z-score
Form: value (number only, do not type unit).

Exercise: Item CC[C@@H]1C=C(C(=O)O)[C@H](c2ccc(C#N)cc2)N1S(=O)(=O)c1ccc(C)cc1 has what recorded composite z-score?
Key: 2.35

Exercise: Record request: composite z-score value, item N[C@@H](Cc1ccccc1)C(=O)NCc1cn(Cc2ccccc2)nn1
Key: 0.595

Exercise: Given the compound CC(C)[Si]1(C(C)C)OCc2cc(C3CC3)nc(-c3ccc(Oc4ccccc4)cc3)c21 , what is its reported composite z-score?
Key: -0.502

Exercise: Entry C[C@@H]1NC(=O)[C@@H](Cc2ccccc2)NC(=O)[C@@]23C(=O)N[C@@H](Cc4ccccc4)C2[C@H](C)[C@@]2(C)O[C@H]2C3/C=C/C/C=C\CNC1=O (stereo partly specified) : reported composite z-score = ?
Key: 1.13

Exercise: Please give the measured composite z-score for this compound: CC(C)NC(=O)[C@@]1(C)c2ccccc2C(=O)N(Cc2ccc(OC(F)(F)F)cc2)[C@H]1c1ccc(CO)cc1
Key: -1.63

Exercise: Which measured composite z-score value corresponds to COCCCNC(=O)[C@@]1(Sc2ccc(C)cc2)CC(=O)N(C2Cc3ccccc3C2)[C@@H]1c1ccc(CO)cc1 ?
Key: -1.94

Data provenance: PubChem BioAssay
